Cited source: paper PMC2807882

Form field: binding signal (one value per entry).
- System tested: Mmp53 (Mus musculus, UniProt P02340 1-390)
- Sequence (P02340 whole entry): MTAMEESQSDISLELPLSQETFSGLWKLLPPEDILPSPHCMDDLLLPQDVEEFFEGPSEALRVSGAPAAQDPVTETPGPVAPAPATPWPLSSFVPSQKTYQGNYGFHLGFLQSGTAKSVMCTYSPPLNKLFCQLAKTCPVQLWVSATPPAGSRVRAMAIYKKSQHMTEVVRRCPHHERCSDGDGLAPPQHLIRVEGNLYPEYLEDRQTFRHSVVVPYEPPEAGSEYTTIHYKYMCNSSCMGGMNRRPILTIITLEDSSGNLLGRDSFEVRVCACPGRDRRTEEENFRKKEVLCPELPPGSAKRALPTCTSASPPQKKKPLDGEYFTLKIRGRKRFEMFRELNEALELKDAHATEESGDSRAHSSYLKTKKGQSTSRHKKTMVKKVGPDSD
- Run description: anisotropy competition; 25 mM NaPi, 225 mM NaCl, 10% v/v glycerol, 5 mM DTT, 0.2 mg/mL BSA, 22°C; 20 nM labelled DNA; pH not stated for the binding assay
- Stated conditions: protein: recombinant; tags: N-terminal 6xHis-lipoyl-TEV tag, cleaved; chain copies: 4

These solved cases illustrate the format of a correct answer.
A5C (dsDNA) DNA 1: CGCGGACCTGTCCGGACATGTCCCGC DNA 2: GCGGGACATGTCCGGACAGGTCCGCG    0.4 ΔlogKd vs ref
A3C (dsDNA) DNA 1: CGCGGCCATGTCCGGACATGTCCCGC DNA 2: GCGGGACATGTCCGGACATGGCCGCG    0.46 ΔlogKd vs ref
G2C (dsDNA) DNA 1: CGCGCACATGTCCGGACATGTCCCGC DNA 2: GCGGGACATGTCCGGACATGTGCGCG    0.28 ΔlogKd vs ref
T6C (dsDNA) DNA 1: CGCGGACACGTCCGGACATGTCCCGC DNA 2: GCGGGACATGTCCGGACGTGTCCGCG    0.36 ΔlogKd vs ref

Task: Returns the measured binding signal for the input binder. Input: G7C (dsDNA) DNA 1: CGCGGACATCTCCGGACATGTCCCGC DNA 2: GCGGGACATGTCCGGAGATGTCCGCG
Output: 0.67 ΔlogKd vs ref
